tgt: T1, PD-L1-Fc (PD-L1 antigen protein, extracellular region Met1-Thr239 fused to human Fc) (human, UniProt Q9NZQ7 19-239)
T1 construct: range 1-239; the secreted protein lacks it; also called PD-L1-Fc antigen; pCEP4-PDL1-Fc product; not shown: human Fc fragment of the pCEP4-Fc vector
experimental_details: BLI (Octet); PD-1-coated biosensor dipped in a mix of PD-L1 antigen protein and antibody; KD from the Octet software
measurement_name: pKd
Recall that pKd is obtained by taking minus log10 of the concentration measured in molar.

Known pKd results, listed for orientation:
binder="KL001-12 (antibody, V domains shown) VH: QVQLVESGAEVKKPGSSVKVSCKASGGTFSSYAISWVRQAPGQGLEWMGRIIPILGIANYAQKFQGRVTVTADKSTSTAYMELSSLRSEDTAVYYCARSGYGYAYGSFDYWGQGTLVTVSS VL: QLVLTQPPSVSGAPGQTVTISCTGPTIGAGYDVHWYQQLPGAAPKLLIYGNLNRPSGVPDRFSGSKSGTSASLAITDLQAEDEADYYCQSYDSALGVVFGGGTKLTVL" measurement_name=pKd value_measured=10.82
binder="KL001-13 (antibody, human IgG1, kappa, V domains shown, also called KL001-13 candidate antibody) VH: QVQLVESGAEVKKPGSSVKVSCKASGGTFSSYAISWVRQAPGQGLEWMGRIIPILGIANYAQKFQGRVTVTADKSTSTAYMELSSLRSEDTAVYYCARSGYGYAYGSFDYWGQGTLVTVSS VL: QLVLTQPPSVSGAPGQTVTISCTGQTIGAGYDVHWYQQLPGAAPKLLIYGNLNRPSGVPDRFSGSKSGTSASLAITDLQAEDEADYYCQSYDSRLGVVFGGGTKLTVLR" measurement_name=pKd value_measured=11.31
binder="KL001-16 (antibody, V domains shown) VH: QVQLVESGAEVKKPGSSVKVSCKASGGTFSSYAISWVRQAPGQGLEWMGRIIPILGIANYAQKFQGRVTVTADKSTSTAYMELSSLRSEDTAVYYCARSGYGYAYGSFDYWGQGTLVTVSS VL: QLVLTQPPSVSGAPGQTVTISCTGPTIGAGYDVHWYQQLPGAAPKLLIYGNLNRPSGVPDRFSGSKSGTSASLAITDLQAEDEADYYCQSYDSRLGVVFGGGTKLTVL" measurement_name=pKd value_measured=11.04
binder="KL001-22 (antibody, V domains shown) VH: QVQLVESGAEVKKPGSSVKVSCKASGGTFSSYAISWVRQAPGQGLEWMGRISPILGIANYAQKFQGRVTVTADKSTSTAYMELSSLRSEDTAVYYCARSGYGYAYGSFDYWGQGTLVTVSS VL: QLVLTQPPSVSGAPGQTVTISCTGPTIGAGYDVHWYQQLPGAAPKLLIYGNLNRPSGVPDRFSGSKSGTSASLAITDLQAEDEADYYCQSYDSTLGVVFGGGTKLTVL" measurement_name=pKd value_measured=10.31

# input Recorded pKd of KL001-11 (antibody, V domains shown) VH: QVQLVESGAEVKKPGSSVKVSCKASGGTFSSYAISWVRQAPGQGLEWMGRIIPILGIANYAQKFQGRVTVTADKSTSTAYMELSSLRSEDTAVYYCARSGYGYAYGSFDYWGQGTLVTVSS VL: QLVLTQPPSVSGAPGQTVTISCTGPTIGAGYDVHWYQQLPGAAPKLLIYGNLNRPSGVPDRFSGSKSGTSASLAITDLQAEDEADYYCQSYDRTLGVVFGGGTKLTVL , please.
# output 10.79
